Biological target: T1, FLAG-tagged 88C receptor (human, UniProt P51681 1-352)
T1 sequence: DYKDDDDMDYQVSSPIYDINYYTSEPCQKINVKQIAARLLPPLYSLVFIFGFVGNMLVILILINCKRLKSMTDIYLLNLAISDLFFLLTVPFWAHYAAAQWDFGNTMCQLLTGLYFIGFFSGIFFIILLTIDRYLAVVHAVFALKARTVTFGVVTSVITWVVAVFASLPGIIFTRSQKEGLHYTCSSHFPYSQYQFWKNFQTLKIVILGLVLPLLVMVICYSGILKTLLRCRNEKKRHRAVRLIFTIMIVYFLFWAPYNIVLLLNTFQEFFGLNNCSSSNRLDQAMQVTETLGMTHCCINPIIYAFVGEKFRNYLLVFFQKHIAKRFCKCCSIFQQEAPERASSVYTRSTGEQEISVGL
Test: equilibrium binding of 125I-MIP-1β to HEK-293 cells expressing FLAG-tagged 88C, Scatchard analysis
pKd: −log10 of the molar value.

binder	pKd
MIP-1β (ligand, UniProt P13236 24-92, looked up, also called MIP-1beta; radiolabeled MIP-1β) APMGSDPPTACCFSYTARKLPRNFVVDYYETSSLCSQPAVVFQTKRSKQVCADPSESWVQEYVYDLELN	8.80
